Target: LC3B (microtubule-associated protein 1 light chain 3 β) (human, UniProt Q9GZQ8 1-120)
Test: ITC; LIR peptide stock (350 µM) injected into LC3B in the cell, 298 K, 25 mM phosphate buffer, 150 mM NaCl, pH 7.5; one-site binding model
Conditions: both partners purified
measured.metric: pKd
Numbers only, as −log10 of the molar value.

binder	pKd
SGGDDDWTHVSSKEVDPSTG (SQSTM1/p62, human, residues 332 to 351 with the ALS-associated L341V mutation; also called L341V-mutant LIR; mutant LIR; source: synthetic peptide (PeptideSynthetics, purity > 98%)) [LIR (L341V) peptide (residues 332 to 351 of human SQSTM1 with L341V)]	4.96

Please examine the following record next.
-- ask Entry under review: SGGDDDWTHLSSKEVDPSTG (source: synthetic peptide (PeptideSynthetics, purity > 98%)) [WT LIR peptide (residues 332 to 351 of human SQSTM1)] . Reported pKd?
-- reply 5.49

Origin of values: paper PMC4990988
